This collection of values is drawn from the supplement of paper PMC13380429.

test system: Vero E6 infected with SARS-CoV-2; experiment: inhibition of SARS-CoV-2 cytopathic effect; higher = more antiviral protection, active = above 15; settings: 10000 nM; 48 h
Write down one outcome, taken from active, inactive

Compound	Answer label
N[C@@H](Cc1ccc(O)cc1)C(=O)NCC(=O)NCC(=O)O	inactive

GET /call?item= Nc1nc(N)nc(-c2cc(Cl)ccc2Cl)n1 returns the recorded outcome of this test. inactive

GET /call?item= CC(=O)Nc1ccc(NC(=S)NC(=O)c2ccc(C(C)(C)C)cc2)cc1 returns the recorded outcome of this test. inactive

GET /call?item= C[C@@H]1CC[C@@]2(OC1)O[C@H]1C[C@H]3[C@@H]4CC=C5C[C@@H](O)CC[C@]5(C)[C@H]4CC[C@]3(C)[C@H]1[C@@H]2C returns the recorded outcome of this test. inactive

GET /call?item= NCC(=O)O returns the recorded outcome of this test. inactive

GET /call?item= CCOC(=O)CCC(=O)O[C@H]1[C@H](O[C@@H]2[C@@H](C)[C@H](O[C@H]3C[C@@](C)(OC)[C@@H](O)[C@H](C)O3)[C@@H](C)C(=O)O[C@H](CC)[C@@](C)(O)[C@H](O)[C@@H](C)C(=O)[C@H](C)C[C@@]2(C)O)O[C@H](C)C[C@@H]1N(C)C [erythromycin-ethylsuccinate] returns the recorded outcome of this test. inactive

---

test system: Vero E6 infected with SARS-CoV-2; experiment: inhibition of SARS-CoV-2 cytopathic effect; higher = more antiviral protection, active = above 15; conditions: 833.33 nM; 48 h
For each of the compounds below, state its inhibition of SARS-CoV-2 cytopathic effect.
One number for each entry, in %.

Solved cases (3 shown):
Compound	Units symbol	Result value
CN(C)CCOC(=O)COc1ccc(Cl)cc1 [meclofenoxate]	%	1.28
CCOc1nc2c(N)ncnc2n1CC	%	1.94
CN1C(=O)CN=C(c2ccccc2)c2cc(Cl)ccc21	%	0.56

Quick request: inhibition of SARS-CoV-2 cytopathic effect for each listed item, please.
1. COc1ccc2[nH]c(C(=O)c3ccccc3)cc2c1
2. N[C@@H]1c2cccnc2[C@H](OC(=O)N2CCC(n3c(=O)[nH]c4ncccc43)CC2)CC[C@H]1c1cccc(F)c1F
3. Cc1ccsc1C(=CCCN1CCC[C@@H](C(=O)O)C1)c1sccc1C
4. CCCCCCCCCCCCCCCC[n+]1ccccc1

1. 0.6
2. -1.15
3. -3.02
4. -0.25

Quick request: inhibition of SARS-CoV-2 cytopathic effect for each listed item, please.
1. Cc1ncc(-c2csc(N=C(N)N)n2)[nH]1
2. C[C@H](c1ccc(F)cc1CCCC(=O)O)N(c1cc(F)ccc1F)S(=O)(=O)c1ccc(Cl)cc1
3. Fc1cc(-c2cccc3ncc(-c4cnn(C5CCNCC5)c4)nc23)cc(F)c1CN1CCOCC1
4. Cn1c(=O)[nH]c2ncn(C)c2c1=O

-1.56
-3.65
-1.44
2.99

---

tested on: Vero E6 infected with SARS-CoV-2; experiment: inhibition of SARS-CoV-2 cytopathic effect; higher = more antiviral protection, active = above 15; settings: 10000 nM; 48 h
Measured quantity: inhibition of SARS-CoV-2 cytopathic effect

Solved cases (5 shown):
Compound	Study target	Result value
CC(Oc1c(Cl)cccc1Cl)C1=NCCN1 (stereo not given) [lofexidine]	Vero E6 infected with SARS-CoV-2	1.15% (inactive)
Cn1c(=O)c2c(ncn2CCO)n(C)c1=O [etofylline]	Vero E6 infected with SARS-CoV-2	-1.01% (inactive)
CCCn1c(=O)c2[nH]c(-c3cnn(Cc4cccc(C(F)(F)F)c4)c3)nc2n(CC)c1=O	Vero E6 infected with SARS-CoV-2	0.11% (inactive)
C[C@H]1CNCCCN1S(=O)(=O)c1cccc2cncc(F)c12 [ripasudil]	Vero E6 infected with SARS-CoV-2	-5.58% (inactive)
Nc1cccc2c(=O)[nH][nH]c(=O)c12 [monosodium-alpha-luminol]	Vero E6 infected with SARS-CoV-2	2.06% (inactive)

Quick request: inhibition of SARS-CoV-2 cytopathic effect for each listed item, please.
1. CCCOC(C(=O)OC1CCN(C)CC1)(c1ccccc1)c1ccccc1 [propiverine]
2. CC(C)c1ccccc1S(=O)(=O)c1cc(N)c2ncccc2c1[N+](=O)[O-]
3. CCCNS(=O)(=O)Nc1ncnc(OCCOc2ncc(Br)cn2)c1-c1ccc(Br)cc1 [macitentan]

1: 1.89% (inactive); 2: 9.31% (inactive); 3: 4.76% (inactive)

Quick request: inhibition of SARS-CoV-2 cytopathic effect for each listed item, please.
1. CC(C)(C)c1ccc2cc(C#N)c(C#N)cc2c1
2. c1ccc2c(c1)sc1ccccc12 [dibenzothiophene]

1: -3.93% (inactive); 2: 0.68% (inactive)
